Cited source for all entries: the supplement of paper PMC11061612

Give measured combination Emax for each item. Keep answers brief.
# Test system: RPMI-6666 (Non-Cancerous)
# TEST_PROTOCOL: combination Emax (second highest fraction inhibited in the dose matrix, 72 h); higher = more inhibition; extreme values may be limits of the assay
In your answer, state the number alone without any accompanying words.

Task item: Item C[C@@H](Nc1cc(F)cc(F)c1)c1cc(C(=O)N(C)C)cc2c(=O)cc(N3CCOCC3)oc12 [AZD8186] + C1CN(CCC1(C(=O)N[C@@H](CCO)C2=CC=C(C=C2)Cl)N)C3=NC=NC4=C3C=CN4 [AZD5363] (first compound max 10 µM, 7x7, partner max 10 µM) has what recorded combination Emax?
Reply: 0.672

Task item: Item C[C@@H]1COCCN1c1cc(C2([S@](C)(=N)=O)CC2)nc(-c2ccnc3[nH]ccc23)n1 [AZD6738] + O=C(c1cc(Cc2n[nH]c(=O)c3ccccc23)ccc1F)N1CCN(C(=O)C2CC2)CC1 [Olaparib] (first compound max 10 µM, 7x7, partner max 10 µM) has what recorded combination Emax?
Reply: 0.816

###

# System: RPMI-6666 (Non-Cancerous)
# TEST_PROTOCOL: combination Emax (second highest fraction inhibited in the dose matrix, 72 h); higher = more inhibition; extreme values may be limits of the assay
PROPERTY_MEASURED: combination Emax
In your answer, state the number alone without any accompanying words.

Task item: Item CN(CCO)CC[C@H](CSc1ccccc1)Nc1ccc(S(=O)(=O)NC(=O)c2ccc(N3CCC([C@@H](O)c4ccccc4-c4ccc(Cl)cc4)CC3)cc2)cc1S(=O)(=O)C(F)(F)F [AZD4320] + C[C@@H]1COCCN1C2=NC(=NC(=C2)C3(CC3)[S@](=N)(=O)C)C4=C5C=CNC5=NC=C4 [AZD6738] (first compound max 1 µM, 7x7, partner max 10 µM) has what recorded combination Emax?
Reply: 0.989

Task item: Item NC1(C(=O)N[C@@H](CCO)c2ccc(Cl)cc2)CCN(c2ncnc3[nH]ccc23)CC1 [Capivasertib] + COc1nnc2ccc(N3CCC(c4ccc(OCCN5CCN(C)C(=O)[C@H]5C)cc4)CC3)nn12 [AZD5153] (first compound max 10 µM, 7x7, partner max 1 µM) has what recorded combination Emax?
Reply: 0.815

Task item: Item Cc1cc2ncnn2cc1Nc1ncc2c(n1)n(C1CCOCC1)c(=O)n2C [AZD7648] + C[C@@H]1COCCN1C2=NC(=NC(=C2)C3(CC3)[S@](=N)(=O)C)C4=C5C=CNC5=NC=C4 [AZD6738] (first compound max 10 µM, 7x7, partner max 10 µM) has what recorded combination Emax?
Reply: 0.797

###

# System: MDA-MB-468 (Breast Carcinoma);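 also: after 72 h of two-drug dosing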
# TEST_PROTOCOL: Bliss excess, mean over the matrix (fraction); higher = more synergy
PROPERTY_MEASURED: Bliss excess
In your answer, state the number alone without any accompanying words.

Task item: Item CS(=O)(=O)CCNCc1ccc(-c2ccc3ncnc(Nc4ccc(OCc5cccc(F)c5)c(Cl)c4)c3c2)o1 [Lapatinib] + Cn1cnc2c(F)c(Nc3ccc(Br)cc3Cl)c(C(=O)NOCCO)cc21 [Selumetinib] (first compound max 10 µM, 7x7, partner max 10 µM) has what recorded Bliss excess?
Reply: -0.0835

Task item: Item Cc1nc(-c2cn3c(n2)-c2ccc(-c4cnn(C(C)(C)C(N)=O)c4)cc2OCC3)n(C(C)C)n1 [Taselisib] + O=C(Nc1ccc2[nH]nc(-c3ccncc3)c2c1)[C@@H]1CCN(CC(=O)N2CCN(c3ccc(-c4ncccn4)cc3)CC2)C1 [SCH772984] (first compound max 10 µM, 7x7, partner max 5 µM) has what recorded Bliss excess?
Reply: -0.003

Task item: Item COc1cccc(OCCCN)c1-c1cc(Nc2cnc(C#N)cn2)n[nH]1 [Prexasertib] + CN(C)CCCOc1ccc(-c2ccc3ncc4c(c3c2)n(C2CCOCC2)c(=O)n4C)cn1 [AZD0156] (first compound max 1 µM, 7x7, partner max 1 µM) has what recorded Bliss excess?
Reply: -0.057

Task item: Item NC1(C(=O)N[C@@H](CCO)c2ccc(Cl)cc2)CCN(c2ncnc3[nH]ccc23)CC1 [Capivasertib] + C[C@@H]1COCCN1C2=NC(=NC(=C2)C3(CC3)[S@](=N)(=O)C)C4=C5C=CNC5=NC=C4 [AZD6738] (first compound max 10 µM, 7x7, partner max 10 µM) has what recorded Bliss excess?
Reply: -0.0652
